All figures here come from patent US9550796B2.

Measured MV-4-11 TGI accompanies every entry in the list below.
- Test system: MV-4-11
- Procedure Details: Cell growth inhibition assay (CellTiter-Glo), MV-4-11
- Format: cell-based, human
- Experimental Conditions: MV-4-11 cells, 4 days, total growth inhibition
Assay Endpoint: MV-4-11 TGI (nM)

[
  {
    "Compound": "Cc1cc(N2C(=O)c3ccn(C)c3C2c2ccc(Cl)cc2)nn2c(C)nnc12 (stereo not drawn) [Example 131]",
    "Assay Endpoint": "MV-4-11 TGI",
    "Reported Value": 21.5
  },
  {
    "Compound": "Cc1cc(N2C(=O)c3cc(-c4ccn(C)c(=O)c4)n(C)c3C2c2ccc(Cl)cc2)cn(C)c1=O (stereo not drawn) [Example 45]",
    "Assay Endpoint": "MV-4-11 TGI",
    "Reported Value": 96.7
  },
  {
    "Compound": "Cc1cc(N2C(=O)c3c(NC(=O)OC(C)(C)C)cn(C)c3C2c2ccc(Cl)cc2)nc2c1nnn2C (stereo not drawn) [Example 95]",
    "Assay Endpoint": "MV-4-11 TGI",
    "Reported Value": 63.1
  },
  {
    "Compound": "COc1ncc(-c2cc3c(n2C)C(c2ccc(Cl)cc2)N(c2cc(Cl)c(=O)n(C)c2)C3=O)cn1 (stereo not drawn) [Example 40]",
    "Assay Endpoint": "MV-4-11 TGI",
    "Reported Value": 127
  },
  {
    "Compound": "Cc1cc2c(n1C)[C@@H](c1ccc(Cl)cc1)N(c1cc(Cl)c(=O)n(C)c1)C2=O [Example 75]",
    "Assay Endpoint": "MV-4-11 TGI",
    "Reported Value": 102
  },
  {
    "Compound": "COCn1cc(C)c2c1C(c1ccc(Cl)cc1)N(c1cc(C)c3nnn(C)c3n1)C2=O (stereo not drawn) [Example 2]",
    "Assay Endpoint": "MV-4-11 TGI",
    "Reported Value": 19.7
  },
  {
    "Compound": "Cc1ccc(C2c3c(ccn3C)C(=O)N2c2cc(C)c(=O)n(C)c2)cc1 (stereo not drawn) [Example 81]",
    "Assay Endpoint": "MV-4-11 TGI",
    "Reported Value": 121
  },
  {
    "Compound": "Cc1cn(C2CN(C)C2)c2c1C(=O)N(c1cc(C)c3nnc(C)n3c1)C2c1ccc(Cl)cc1 (stereo not drawn) [Example 5]",
    "Assay Endpoint": "MV-4-11 TGI",
    "Reported Value": 13.05
  },
  {
    "Compound": "COc1cccc(-c2cc3c(n2C)C(c2ccc(Cl)cc2)N(c2cc(C)c(=O)n(C)c2)C3=O)n1 (stereo not drawn) [Example 59]",
    "Assay Endpoint": "MV-4-11 TGI",
    "Reported Value": 106
  }
]

----------
Measured THP-1 TGI accompanies every entry in the list below.
- Tested on: THP-1
- Procedure Details: Cell growth inhibition assay (CellTiter-Glo), THP-1
- Format: cell-based, human
- Experimental Conditions: THP-1 cells, 4 days, total growth inhibition

[
  {
    "Compound": "CCOC(=O)Nc1cn(C)c2c1C(=O)N(c1cc(C)c3nnn(C)c3n1)C2c1ccc(Cl)cc1 (stereo not drawn) [Example 97]",
    "THP-1 TGI": "0.03345 µM"
  },
  {
    "Compound": "Cc1cc(N2C(=O)c3ccn(C)c3C2c2ccc(Cl)cc2)cn(C)c1=O (stereo not drawn) [Example 72]",
    "THP-1 TGI": "0.301 µM"
  },
  {
    "Compound": "CNC(=O)Cn1cc(C)c2c1C(c1ccc(Cl)cc1)N(c1cc(C)c3nnc(C)n3c1)C2=O (stereo not drawn) [Example 127]",
    "THP-1 TGI": "1.129 µM"
  },
  {
    "Compound": "CC(=O)N1CC(c2cn(C)c3c2C(=O)N(c2cc(C)c4nnc(C)n4c2)C3c2ccc(Cl)cc2)C1 (stereo not drawn) [Example 117]",
    "THP-1 TGI": "0.354 µM"
  },
  {
    "Compound": "Cc1cc(N2C(=O)c3c(C4CC4)c(C4=CCOCC4)n(C)c3C2c2ccc(Cl)cc2)cn2c(C)nnc12 (stereo not drawn) [Example 119]",
    "THP-1 TGI": "0.003665 µM"
  },
  {
    "Compound": "Cc1cn(C(=O)N(C)C)c2c1C(=O)N(c1cc(C)c3nnc(C)n3c1)C2c1ccc(Cl)cc1 (stereo not drawn) [Example 10]",
    "THP-1 TGI": "0.06985 µM"
  },
  {
    "Compound": "Cc1cc(N2C(=O)c3c(NC(=O)CN(C)C)cn(C)c3C2c2ccc(Cl)cc2)cn2c(C)nnc12 (stereo not drawn) [Example 116]",
    "THP-1 TGI": "0.123 µM"
  },
  {
    "Compound": "COc1ncccc1-c1cc2c(n1C)C(c1ccc(Cl)cc1)N(c1cc(C)c3nnc(C)n3c1)C2=O (stereo in doubt) [Example 135]",
    "THP-1 TGI": "0.01495 µM"
  },
  {
    "Compound": "Cc1cc(N2C(=O)c3c(C(=O)N(C)C)cn(C)c3C2c2ccc(Cl)cc2)cn2c(C)nnc12 (stereo not drawn) [Example 100]",
    "THP-1 TGI": "2.135 µM"
  },
  {
    "Compound": "CCOC(=O)n1cc(C2CC2)c2c1C(c1ccc(Cl)cc1)N(c1cc(C)c3nnc(C)n3c1)C2=O (stereo not drawn) [Example 125]",
    "THP-1 TGI": "0.0284 µM"
  },
  {
    "Compound": "Cc1cc(N2C(=O)c3c(NC(=O)CCN(C)C)cn(C)c3C2c2ccc(Cl)cc2)cc2c1nnn2C (stereo not drawn) [Example 115]",
    "THP-1 TGI": "0.079 µM"
  },
  {
    "Compound": "Cn1ccc2c1C(c1ccc(C#N)cc1)N(c1cc(Cl)c(=O)n(C)c1)C2=O (stereo not drawn) [Example 89]",
    "THP-1 TGI": "2.015 µM"
  },
  {
    "Compound": "Cc1cc(N2C(=O)c3cc(C4=CCOCC4)n(C)c3C2c2ccc(Cl)cc2)cn2c(C)nnc12 (stereo not drawn) [Example 31]",
    "THP-1 TGI": "0.0525 µM"
  },
  {
    "Compound": "Cc1cc(N2C(=O)c3ccn(C)c3C2c2ccc(Cl)c(F)c2)cn(C)c1=O (stereo not drawn) [Example 80]",
    "THP-1 TGI": "0.3695 µM"
  },
  {
    "Compound": "CCOC(=O)n1c(C2=CCOCC2)c(C)c2c1C(c1ccc(Cl)cc1)N(c1cc(C)c3nnc(C)n3c1)C2=O (stereo not drawn) [Example 123]",
    "THP-1 TGI": "0.0135 µM"
  }
]
